Sourced from ChEMBL document CHEMBL4043083

Listed next: entries and their corresponding inhibition.
# Tested Target: Beta-secretase 1 (Homo sapiens)
# Sequence (P56817 whole entry): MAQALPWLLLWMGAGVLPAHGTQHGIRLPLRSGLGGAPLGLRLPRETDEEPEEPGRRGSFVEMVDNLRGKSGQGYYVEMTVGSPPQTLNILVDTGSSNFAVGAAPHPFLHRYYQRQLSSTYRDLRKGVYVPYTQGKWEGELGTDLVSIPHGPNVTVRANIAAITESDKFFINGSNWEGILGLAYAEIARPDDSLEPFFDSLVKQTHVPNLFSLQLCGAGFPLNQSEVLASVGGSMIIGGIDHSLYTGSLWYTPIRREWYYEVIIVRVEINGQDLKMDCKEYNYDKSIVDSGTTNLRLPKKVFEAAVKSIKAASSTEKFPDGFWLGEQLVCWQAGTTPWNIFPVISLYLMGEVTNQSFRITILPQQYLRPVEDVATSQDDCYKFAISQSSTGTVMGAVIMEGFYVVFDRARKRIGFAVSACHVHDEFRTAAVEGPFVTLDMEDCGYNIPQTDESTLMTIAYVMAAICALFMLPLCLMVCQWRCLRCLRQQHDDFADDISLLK
# Method Description: Inhibition of BACE1 (unknown origin) at 10 uM pre-incubated for 10 mins before addition of fluorescent substrate HiLyte FluorTM 488-Glu-Val-Asn-Leu-Asp-Ala-Glu-Phe-Lys and measured over 30 mins
// return numeric value only (unit: %, not printed)

>>> recorded_number("COC(=O)[C@H](c1ccccc1)N1C[C@@H]2O[C@@H](C(=O)N3CCCCC3)[C@@H](O2)C1=O")
0

Lookup: Provide the documented inhibition with Beta-secretase 1 (Homo sapiens) as the system for CCOC(=O)N1CCN(C(=O)[C@@H]2O[C@@H]3O[C@H]2C(=S)N(Cc2ccccc2)[C@H]3Cc2ccccc2)CC1
Found: 16

Lookup: Same lookup for O=C([C@@H]1O[C@H]2CN(Cc3ccccc3)C(=S)[C@@H]1O2)N1CCOCC1 , please.
Found: 10

Lookup: Same lookup for O=C([C@H]1O[C@H]2O[C@@H]1C(=S)N(Cc1ccccc1)[C@@H]2Cc1ccccc1)N1CCOCC1 , please.
Found: 32
